Parameter 'readout' = pIC50; parameter 'system' = MetAP-2 (Homo sapiens, UniProt P50579).
Sequence (P50579 whole entry, species assumed): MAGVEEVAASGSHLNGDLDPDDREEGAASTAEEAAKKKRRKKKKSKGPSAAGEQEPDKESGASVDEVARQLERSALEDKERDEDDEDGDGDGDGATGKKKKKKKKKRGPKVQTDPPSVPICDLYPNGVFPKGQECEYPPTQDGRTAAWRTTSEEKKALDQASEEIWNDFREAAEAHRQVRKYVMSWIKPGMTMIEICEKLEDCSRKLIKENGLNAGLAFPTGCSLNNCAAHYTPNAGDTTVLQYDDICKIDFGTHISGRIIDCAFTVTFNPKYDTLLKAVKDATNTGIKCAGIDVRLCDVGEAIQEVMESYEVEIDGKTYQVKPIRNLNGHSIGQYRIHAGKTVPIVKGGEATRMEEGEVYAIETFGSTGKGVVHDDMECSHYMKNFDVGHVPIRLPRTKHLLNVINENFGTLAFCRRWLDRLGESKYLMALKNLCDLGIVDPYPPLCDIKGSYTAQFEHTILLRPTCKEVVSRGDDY
pIC50: −log10 of the molar value.

Solved entries (count: 8):
• O=C(NCc1cc(F)cc(Cl)c1)[C@@]1(O)CCN(c2cnc3[nH]cnc3c2)C1=O = 6.00 to 8.00
• O=C1CCc2cc(CN3CCC(O)(C(=O)NCc4cc(F)cc(Cl)c4)C3=O)ccc2N1 (stereo not drawn) = 6.00 to 8.00
• CCNC(=O)c1cc2cc(N3CC[C@@](O)(C(=O)NCc4cc(F)cc(Cl)c4)C3=O)ccc2o1 = < 5.00
• O=C(NCc1cc(F)cc(Cl)c1)[C@@]1(O)CCN(c2ccc3[nH]c(=O)ccc3c2)C1=O = 6.00 to 8.00
• O=C(NCc1cc(F)cc(Cl)c1)[C@]1(O)CCN(c2ccc3[nH]c(=O)ccc3c2)C1=O = 5.00 to 6.00
• CC(C)OC(=O)C1(O)CCN(C(=O)OCc2ccccc2)C1=O (stereo not drawn) = < 5.00
• CN(C)CCN(C)C(=O)[C@@]1(O)CCN(c2ccccc2)C1=O = < 5.00
• Cn1c(CN2CCC(O)(C(=O)NCc3cc(F)cc(Cl)c3)C2=O)nc2ccccc21 (stereo not drawn) = 5.00 to 6.00

May I ask what pIC50 has been recorded for CS(=O)(=O)N1CC[C@@H](N2CCC(O)(C(=O)NCc3cc(F)cc(Cl)c3)C2=O)C1 (stereo partly drawn) ?
5.00 to 6.00

* * *

Below are compounds with their IC50 as measured on MetAP-2 (Homo sapiens).

// solved cases for IC50 follow
- CNC(=O)[C@H]1CC[C@H](N2CCC(O)(C(=O)NCc3cc(F)cc(Cl)c3)C2=O)CC1 (stereo partly drawn): 1000 to 10000 nM
- Cc1noc(-c2cc3cc(N4CC[C@](O)(C(=O)NCc5cc(F)cc(Cl)c5)C4=O)ccc3[nH]2)n1: 10 to 1000 nM
- CC1CCC(N2CCC(O)(C(=O)NCc3cc(F)cc(Cl)c3)C2=O)CC1 (stereo not drawn): 10 to 1000 nM
- O=C(NCc1ccc(F)cc1)C1(O)CCCN(Cc2ccc(F)c(F)c2)C1=O (stereo not drawn): 1000 to 10000 nM
- O=C1Nc2ccc(N3CC[C@](O)(C(=O)NCc4cc(F)cc(Cl)c4)C3=O)cc2C1(F)F: 10 to 1000 nM

Value wanted: IC50 (MetAP-2 (Homo sapiens)) of entry O=C(NCc1cc(F)cc(Cl)c1)[C@]1(O)CCN(c2cnc3[nH]cc(C(F)(F)F)c3c2)C1=O
> 10000 nM

Lab note: need IC50 for CC1(C)CN(c2ccccc2)C(=O)[C@@]1(O)C(=O)NCc1cc(F)cc(Cl)c1 on MetAP-2 (Homo sapiens), anyone have it?
> 10000 nM

API: value(readout=IC50, system=MetAP-2 (Homo sapiens)) for record O=C(NCc1cc(F)cc(Cl)c1)C1(O)CCN(c2cnc3[nH]c(C(F)(F)F)cc3c2)C1=O (stereo not drawn)
10 to 1000 nM

* * *

As a worked illustration, we turn to IC50 data collected for MetAP-2 (Homo sapiens, UniProt P50579).

* CN1CCN(C(=O)c2cc3cc(N4CC[C@](O)(C(=O)NCc5cc(F)cc(Cl)c5)C4=O)ccc3[nH]2)CC1 | 10 to 1000 nM
* O=C1N(Cc2cccc(F)c2F)CCC[C@@]1(O)CNCc1cccc(F)c1 | 1000 to 10000 nM
* N#Cc1cc2cc(N3CCC(O)(C(=O)NCc4cc(F)cc(Cl)c4)C3=O)ccc2[nH]1 (stereo not drawn) | 10 to 1000 nM
* O=C1NCCc2cc(N3CC[C@@](O)(C(=O)NCc4cc(F)cc(Cl)c4)C3=O)ccc21 | > 10000 nM
* OC1(CNCc2cccc(F)c2)CCCN(Cc2ccccc2)C1 (stereo not drawn) | > 10000 nM

Observed IC50 on MetAP-2 (Homo sapiens, UniProt P50579) for O=C1CCc2cc(N3CC[C@](O)(C(=O)NCCc4cccc(F)c4)C3=O)ccc2N1 , please.
10 to 1000 nM
